Kindly supply the reported GI50 values for the records listed here.
Tested on: Malme-3M
Assay: NCI tumour cell line growth inhibition, 48 h
Active and inactive are the calls of the source. Rule as the data show it: active = GI50 up to about 1.1 µM and inactive = higher.

Look up and report measured GI50 for this entry: O=c1c2c3c(sc2nc2n1N=C(c1ccc(Br)cc1)CS2)CCCC3
> 100 µM (inactive)

Look up and report measured GI50 for this entry: CN(C)c1n/c(=N/Cc2cccnc2)ss1
> 10 µM (inactive)

Look up and report measured GI50 for this entry: O=C1C2C3C=C4c5ccccc5N(c5ccccc5)C4(C2C(=O)N1Cc1ccccc1)C1C(=O)N(Cc2ccccc2)C(=O)C31 (stereo unspecified)
> 100 µM (inactive)

Look up and report measured GI50 for this entry: OCCCOC(c1ccccc1)(c1ccccc1)c1ccccc1
> 100 µM (inactive)

Look up and report measured GI50 for this entry: CN(C)CCn1c(CO)nc2c1c(=O)n(C)c(=O)n2C
> 100 µM (inactive)

Look up and report measured GI50 for this entry: CCOC(=O)CNC(=O)NC12CC3CC(CC(C3)C1)C2
133 µM (inactive)

Hello, the source for this data is ChEMBL document CHEMBL1201862, in case you need it.
